Experimental system: FGF receptor tyrosine kinase (human FGF-1 (flg)) (Homo sapiens)
Construct: PCR primers are designed to amplify a fragment of DNA that codes for the intracellular tyrosine kinase domain
Sequence (P11362 478-767 limits assumed): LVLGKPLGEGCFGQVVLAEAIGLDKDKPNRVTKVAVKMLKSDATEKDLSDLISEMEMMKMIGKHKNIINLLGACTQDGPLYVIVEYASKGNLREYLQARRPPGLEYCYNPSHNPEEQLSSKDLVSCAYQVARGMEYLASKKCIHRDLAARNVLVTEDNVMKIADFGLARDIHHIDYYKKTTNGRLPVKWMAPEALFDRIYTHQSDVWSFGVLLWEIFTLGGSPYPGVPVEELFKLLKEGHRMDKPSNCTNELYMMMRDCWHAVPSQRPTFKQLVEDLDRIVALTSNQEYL
Assay text: FGFr tyrosine kinase assay (poly glutamate-tyrosine phosphorylation)
Condition label: Table 1; 10 minutes at 25° C.
pIC50: −log10 of the molar value. Structures can show the parent of a compound that is named as a salt.
Lab note: anything with pIC50 at or over 5 counts as YES; the rest go in NO.

Please review the entries below; each comes with its answer.
{"Compound": "OCC(O)COc1ccc2c(c1)ncn2-c1ccccc1 (stereo not shown) [Example 33, Hydrochloride]", "Classification": "NO"}
{"Compound": "Clc1ccc2c(c1)ncn2-c1ccccc1", "Classification": "NO"}
{"Compound": "c1ccc(-n2cnc3cc4c(cc32)OCO4)cc1 [Example 48, Hydrochloride]", "Classification": "NO"}
{"Compound": "OCc1ccc2c(c1)ncn2-c1ccccc1 [Example 26, 5-(Hydroxymethyl)-1-phenylbenzimidazole]", "Classification": "NO"}
{"Compound": "CN(C)CCOc1ccc2c(c1)ncn2-c1ccccc1 [Example 36, Dihydrochloride]", "Classification": "NO"}

-- ask Given the entry CC(=O)Nc1ccc2c(c1)ncn2-c1ccccc1 [Example 23, Hydrochloride] , answer whether its pIC50 meets or surpasses 5.
-- reply NO

-- ask Given the entry Oc1ccc2c(c1)ncn2-c1ccccc1 [Example 14, 5-Hydroxy-1-phenylbenzimidazole] , answer whether its pIC50 meets or surpasses 5.
-- reply YES

-- ask Given the entry COc1ccc2c(c1)ncn2-c1cccs1 [Example 55, Hydrochloride] , answer whether its pIC50 meets or surpasses 5.
-- reply YES

----------
The following are reported pIC50 results, target or system c-Src (Homo sapiens).
pIC50: −log10 of the molar value. Counter-ions that a name gives are not always drawn.

Below are worked cases with known answers.
{"Molecule": "NC(=O)c1ccc2c(c1)ncn2-c1ccccc1 [Example 18, Hydrochloride]", "pIC50": "> 4.30"}
{"Molecule": "NCCOc1ccc2c(c1)ncn2-c1ccccc1 [Example 35, Dihydrochloride]", "pIC50": "> 4.30"}
{"Molecule": "Oc1ccc2ncn(-c3ccccc3)c2c1 [Example 41, Hydrochloride]", "pIC50": "< 4.30"}

For each of the molecules below, note its pIC50.
1. COC(=O)c1ccc2ncn(-c3ccccc3)c2c1 [Example 43, Hydrochloride]
2. Oc1cccc(-n2cnc3ccccc32)c1 [Example 2, Hydrochloride]
3. COc1ccc2c(c1)ncn2-c1ccc(N)cc1 [Example 45, Dihydrochloride]
4. COc1cc2ncn(-c3ccccc3)c2cc1CO [Example 53, Hydrochloride]
5. CC(=O)Oc1ccc2c(c1)ncn2-c1ccccc1
6. CCCOc1ccc2c(c1)ncn2-c1ccccc1 [Example 29, hydrochloride]

-- reply
< 4.30
< 4.30
< 4.30
4.30
< 4.30
< 4.30

----------
Experimental system: insulin receptor (INSr) (Homo sapiens, UniProt P06213)
Construct: An assay using the intracellular kinase domains of insulin receptor (INSr) is performed
Sequence (P06213 1023-1298 limits assumed, species assumed): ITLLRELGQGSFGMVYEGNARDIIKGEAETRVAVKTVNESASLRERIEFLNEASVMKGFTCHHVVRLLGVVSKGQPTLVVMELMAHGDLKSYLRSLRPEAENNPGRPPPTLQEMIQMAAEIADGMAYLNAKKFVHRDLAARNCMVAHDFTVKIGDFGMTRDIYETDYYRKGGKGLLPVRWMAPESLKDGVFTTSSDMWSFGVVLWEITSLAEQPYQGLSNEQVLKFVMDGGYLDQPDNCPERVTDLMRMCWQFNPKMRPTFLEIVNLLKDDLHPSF
Assay text: Insulin receptor kinase assay
Condition label: Table 1; as for EGF receptor with 10 mM manganese chloride
Where a name gives a salt, the structure may show the parent alone.
Answer each item with its documented IC50.

Below are worked cases with known answers.
{"Compound": "CCC(=O)Nc1ccc2c(c1)ncn2-c1ccccc1 [Example 24, Hydrochloride]", "IC50": "> 50 µM"}
{"Compound": "c1ccc(-n2cnc3cnccc32)cc1 [Example 22, Hydrochloride]", "IC50": "> 50 µM"}

-- ask Tell me IC50 reported for COC(=O)c1ccc2c(c1)ncn2-c1ccccc1
-- reply > 50 µM

Hello, the source for this data is patent US5990146A, in case you need it.
